Every entry's value here was drawn from the supplement of paper PMC10567573.

- method.description: protein stability index of a GFP-peptide fusion (GPS, HEK-293T) (PSI 1-6); higher = more stable;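 further: 24-mer peptide tiles fused after GFP, lentivirally expressed, FACS-sorted into six equal bins by GFP/DsRed ratio, decoded by Illumina sequencing, PSI is the read-weighted mean bin number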
- setup.conditions: treatment: DMSO; c terminus: a fixed tail appended
# binarize protein stability index: threshold 3 inclusive, high side Satisfied, low side Not satisfied

Request: Check if protein stability index >= 3 (inclusive). Item: RKRNPSRKKQHICDECGKHFSQGS [ZNF24]
Response: Satisfied

Request: Next entry: DKVGLITLSDWAAAVESVLHLGLP [PPEF2]
Response: Not satisfied

Request: Next entry: TEFTRFLCSSPLEAETPPNGPDCG [ATE1]
Response: Satisfied

Request: Next entry: RSEEAVQVLIKHSADVNARDKNWQ [ANKRD44]
Response: Satisfied

Request: Next entry: GPRPVQSVVPEMEESGAQLLLEML [CDK4]
Response: Satisfied

Request: Next entry: TRKQAAKKVAPLMAKAIRDYKGRF [ELOA2]
Response: Satisfied

Request: Next entry: IADYLLLPLAEREHVSRALCIHTG [TRIB1]
Response: Not satisfied

Request: Next entry: RLIRELAEFEKLSDQVKISEEALR [SAT2]
Response: Satisfied

Request: Next entry: CKVFGIHKACEVAPLQSVFQGQKT [TRIM63]
Response: Not satisfied

Request: Next entry: PTYKVMYKIVTAREWRCCPGHSGV [EMID1]
Response: Not satisfied

Request: Next entry: LGISPSTCSFNPGVIVANMTEWKH [GLT8D2]
Response: Not satisfied

Request: Next entry: AQKESLQNQHHSASLQASIFSGAA [APBB1IP]
Response: Satisfied

Request: Next entry: ALFFKNIMNIIDIVSILPYFITLG [KCNA4]
Response: Not satisfied

Request: Next entry: VEECQAALQNKDTYEPFCKVPVIT [KCTD10]
Response: Satisfied

Request: Next entry: QAQIHGLPVPPTPGLLSLATTSAS [TFE3]
Response: Satisfied

Request: Next entry: PALDWDSVHVPGPHAMTIQELVDY [PTPN9]
Response: Satisfied

Request: Next entry: FMYNLVQFLGFSWIFVNLTVRFCI [HACD3]
Response: Satisfied

Request: Next entry: RQRLLADLLHNVSQNIAAETRAED [DFFB]
Response: Satisfied

Request: Next entry: VRDSDDNSPLHIAALNNHPDIMNL [FEM1C]
Response: Satisfied

Request: Next entry: SKKTFQITKQGDGVDFLSWFLNAL [USP39]
Response: Not satisfied

Request: Next entry: PQSPDFLDITNPKAVLENALRNFA [UFD1]
Response: Not satisfied

Request: Next entry: ENLDEAREQKEKSPPDQPAVPHPP [ADD1]
Response: Satisfied

Request: Next entry: EEEEAEDEEVVATAGDRLTEFRKG [IRX6]
Response: Satisfied

Request: Next entry: RAGGGGGGDYGLVTAGCGFGKDFR [PPTC7]
Response: Satisfied

Request: Next entry: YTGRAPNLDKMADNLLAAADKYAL [SPOPL]
Response: Not satisfied

Request: Next entry: LPGPAFESYESMELACPAERSGHV [KLHDC2]
Response: Satisfied

Request: Next entry: KTKWTKEDGHRTSTSAVPNLFVPL [ADD1]
Response: Satisfied

Request: Next entry: DIAAGEELLYDYGDRSKASIEAHP [KMT5A]
Response: Satisfied

Request: Next entry: RCGVPDVAQFVLTEGNPRWEQTHL [MMP1]
Response: Not satisfied

Request: Next entry: `MPQSEEHLLEAEPLSPIQASSVHL`
Response: Satisfied

Request: Next entry: LNPGFQDATLSLKQTILDKEEKQR [TTC32]
Response: Satisfied

Request: Next entry: AGRLMRPSVKYLSHPRVQSGCDKE [RNF180]
Response: Satisfied

Request: Next entry: SNAMLVGDKLKFLSMLLTLKCEMN [ACSBG2]
Response: Not satisfied

Request: Next entry: YSLMKRQMMSATAQNREPESVEQL [SNX8]
Response: Satisfied

Request: Next entry: LRTLRDFPAEERARVLDRRGCSRV [ANKRD9]
Response: Satisfied

Request: Next entry: WLPQQNAAYFLLSTNDKTVKLWKV [PPP2R2B]
Response: Not satisfied

Request: Next entry: HVSYRELGACVRTAVAQGGWRSLW [SLC25A39]
Response: Not satisfied

Request: Next entry: RRFIQSCPIIRIPNRFLRGHRPPP [KLHDC10]
Response: Not satisfied

Request: Next entry: TTQSAEVGAAETTLTELRRTVQSL [KRT18]
Response: Satisfied

Request: Next entry: MDADMDYERPNVETIKCVVVGDNA [RHOBTB1]
Response: Satisfied

Request: Next entry: EALQNFFSLACSLMGPSRMSLFSL [M1AP]
Response: Not satisfied

Request: Next entry: HGRIPDPDDFVPPVPPPSYFATFY [FAM189A2]
Response: Not satisfied

Request: Next entry: VEKQADTLNVIELNVQKTVDYTGQ [STX11]
Response: Satisfied

Request: Next entry: RGNLSILAAVLVEPKLHTPMYFFL [OR3A1]
Response: Not satisfied

Request: Next entry: SYLLKSGADKEILTTKGEMPVQLT [ANKRD40]
Response: Satisfied

Request: Next entry: ICSSLQNLEKTIFCLQKLISLHPF [C8orf76]
Response: Satisfied

Request: Next entry: AISVVGVSAGGHTLSRPPPAQVPR [TFE3]
Response: Satisfied

Request: Next entry: EKVKKRPGGRPEVIYNYVQRPFIR [BTBD10]
Response: Not satisfied
